assay-notes: Toxicity liver stage against HepG2, at 10uM
Format: cell-based
Parameters: test concentration 10 uM, cell line HepG2-A16-CD81EGFP
measurement-setup: human, HepG2-A16-CD81EGFP cells; read-out: INHIBITION
Readings of cytotoxicity at 10 µM for the listed molecules
Report the figure in % without appending any unit label.

Observe how each entry below is paired with its result.
NC(=O)N1CC[C@H](O)[C@@H]1Cc1ccccc1 :: 3.32
Cc1noc(CN2CCN(Cc3cccs3)CC2)n1 :: -6.23
Cc1nccn1C1CCCN(C(=O)COC2CCCC2)C1 (configuration not stated) :: -10.5
CC(C)Sc1ccc(N2CCN(Cc3ccccn3)CC2)nn1 :: 2.11
CCN(CC)CC(=O)N(C)C(c1cccc(F)c1)c1ccccn1 (configuration not stated) :: -6.54

GET /value?item= `CCC(=O)N1CCN(C(=O)c2cn3ccsc3n2)[C@H]2CS(=O)(=O)C[C@H]21` &field=cytotoxicity at 10 µM returns 4.95

According to the records, this molecule `CCc1ncc(C(=O)N(CCOC)Cc2nccs2)cn1` displays cytotoxicity at 10 µM of -1.47

Kindly note the recorded cytotoxicity at 10 µM for CC(=O)N1CCN(Cc2ccco2)CC2(CC(=O)N(C)C2)C1 (configuration not stated) , which is -3.81

Entry `O=C(c1cc(=O)c(OCc2ccccc2F)co1)N1CCCC1` , cytotoxicity at 10 µM reported as -0.321

For reference, reported cytotoxicity at 10 µM for `COc1cccc(CNc2nc(C)cc(C)n2)c1OC` stands at -6.44

Value of measured cytotoxicity at 10 µM for the entry Cc1ccsc1C(O)CNC(=O)Cc1ccc(S(=O)(=O)C(C)C)cc1 (configuration not stated) : -1.21

Record summary for Cc1cc(C)c(CNC(=O)NCC2Cc3ccccc32)c(=O)[nH]1 (configuration not stated) : reported cytotoxicity at 10 µM = -3.78

* * *

assay-notes: Toxicity liver stage against HepG2, at 10uM
Assay type: cell-based
Parameters: test concentration 10 uM, cell line HepG2-A16-CD81EGFP
measurement-setup: human, HepG2-A16-CD81EGFP cells; read-out: INHIBITION
Entries whose cytotoxicity at 10 µM is below -70% take Satisfied; entries at or above -70% take Not satisfied.

Cc1ccc2oc([C@H]3CCN(Cc4ccccc4)C3)nc2c1 :: Not satisfied
CCc1noc(C(C)Sc2nnc(C3CC3)n2CC(N)=O)n1 (stereo unspecified) :: Satisfied
CCc1cnc(N2CCc3ncnc(N4CCN(C)CC4)c3CC2)nc1 :: Not satisfied

Field: below-cutoff. Rule: recorded cytotoxicity at 10 µM strictly less than -70%. Subject: Cn1c(C2CC2)nc2cc(NC(=O)C3CCOC3)ccc21 (stereo unspecified)
Not satisfied

Is -70% strictly greater than the molecule's reported cytotoxicity at 10 µM? molecule: `COc1ccc(C)cc1C1(CNc2cncc(Cl)n2)CCOCC1`
Not satisfied

* * *

assay-notes: Toxicity liver stage against HepG2, at 10uM
Type: cell-based
Parameters: test concentration 10 uM, cell line HepG2-A16-CD81EGFP
measurement-setup: human, HepG2-A16-CD81EGFP cells; read-out: INHIBITION
# cytotoxicity at 10 µM listing for each entry below

CN(Cc1cc2cc(F)ccc2[nH]1)C(=O)C1CC(=O)N(C2CC2)C1 (centres undefined) :: 0.0448%
Cc1oc(CNC(=O)Cc2ccc3ccccc3c2)cc1C(=O)O :: 3.63%
CSCC(=O)N[C@H]1CN(Cc2c(C)noc2C)C[C@@H]1C(C)C :: 5.4%
COc1nn(C)c2c1CCCN(C(=O)c1ccccc1)C2 :: -9.76%
Cc1nc(CN(C)C(=O)Nc2cccc(C)c2C)no1 :: -0.739%

Briefly, cytotoxicity at 10 µM measured for `COc1cc(NC(=O)NC(C2CC2)C2CC2)ccc1N1CCOC1=O` : 4.63%

For this compound ( `CCn1cncc1CNc1ccc(-c2nc(CC(C)C)no2)cn1` ), measured cytotoxicity at 10 µM is -9.07%

The compound listed as `COc1ccccc1C(=O)N(C)Cc1ncc(C)c(OC)c1C` shows cytotoxicity at 10 µM equal to 5.37%

// cytotoxicity at 10 µM value for CC(=O)N1CCOC(c2c(C(=O)NCCN(C)C)sc3ccccc23)C1 (centres undefined) : -1.19%

c1ccc(-c2nnc(CN3CCCC(Cn4cncn4)C3)o2)cc1 (centres undefined) has a reported cytotoxicity at 10 µM of -7.51%

* * *

assay-notes: Toxicity liver stage against HepG2, at 10uM
Type: cell-based
Set-up: test concentration 10 uM, cell line HepG2-A16-CD81EGFP
measurement-setup: human, HepG2-A16-CD81EGFP cells; read-out: INHIBITION
experimental-readout: cytotoxicity at 10 µM (%)
Hi! Could you send only the number? It should be in %, unit omitted.

Example cases with answers are listed next.
O=C(c1cocn1)N1C[C@H]2CCC[C@@]2(COc2ccccn2)C1 :: -0.798
CCn1ccnc1CN1CCC(Oc2ccccc2F)(C(=O)O)CC1 :: 6.84

In the following, a different molecule is considered.
Input `COC(=O)CNC(=O)c1cn(-c2ccccn2)c(=O)c2ccccc12` . Output cytotoxicity at 10 µM: 0.0537

* * *

assay-notes: Toxicity liver stage against HepG2, at 10uM
Assay type: cell-based
Design: test concentration 10 uM, cell line HepG2-A16-CD81EGFP
measurement-setup: human, HepG2-A16-CD81EGFP cells; read-out: INHIBITION
experimental-readout: cytotoxicity at 10 µM (%)
Form entry: value (%) — number only.

The examples below pair each entry with its known result.
Cc1cc(CN2CCN(C(c3ccccc3)c3ccccc3)CC2)no1 :: -6.56
c1cc(-c2nnc([C@H]3CCN(C4CCOCC4)C3)o2)ccn1 :: -61.3
O=c1oc(-c2cccs2)nn1CC(O)c1ccc2c(c1)CCC2 (centres undefined) :: 5.33
CCc1cc(NCCCC2CCOC2)n2nccc2n1 (centres undefined) :: 5.04
Cc1cc2n(n1)CC(CNCCc1cnn(C)c1)CN2 (centres undefined) :: 5.27

Lab book: cytotoxicity at 10 µM of `CCS(=O)(=O)c1ccccc1C(=O)NCc1ccnc(N(C)C)c1` noted as -3.92

The reported cytotoxicity at 10 µM of the molecule `CN1CC2(CCN(c3ncnc4c3CCNC4)CC2)OC1=O` was -3.2

* * *

assay-notes: Toxicity liver stage against HepG2, at 10uM
Format: cell-based
Set-up: test concentration 10 uM, cell line HepG2-A16-CD81EGFP
measurement-setup: human, HepG2-A16-CD81EGFP cells; read-out: INHIBITION
experimental-readout: cytotoxicity at 10 µM (%)
Write the value in % as a bare number.

Some molecules with recorded cytotoxicity at 10 µM:
Cc1noc(C2CCCCN2C(=O)NCc2ccco2)n1 (configuration not stated) :: 0.986
Cc1ccc(N2CC[C@H](OCC3CC3)[C@@H]2Cc2ccncc2)nn1 :: 8.13
CCOc1ccc(C(=O)n2cccn2)cc1 :: 0.45
CNC(=O)c1nnn(-c2ccccc2F)c1-c1ccccn1 :: -4.21
Cc1ccc([C@@H]2CN(S(=O)(=O)C(C)C)C[C@H]2N(C)C)cc1 :: -0.368
CC(=O)Nc1ccc(S(=O)(=O)NC(=O)CCC2CCCO2)cc1 (configuration not stated) :: -5.11
CC(=O)N1CCCC1c1nnn2cc(-c3ccncc3)ccc12 (configuration not stated) :: 7.28
COCCn1c(-c2cccc(OC)c2)cnc1NC(=O)NC1CCCC1 :: 12.3
O=C(O)C1CN(Cc2cnc(C3CCCCC3)nc2)CCO1 (configuration not stated) :: -6.08
CC(=O)N1CCN(C(=O)CCc2cc(Br)cs2)CC1 :: -9.74

GET /value?item= CCOCCN1CCN(Cc2nnc(C3CC3)o2)CC1C (configuration not stated) &field=cytotoxicity at 10 µM returns 12.9

Short answer for CCc1ccc(CNC(=O)NC(C)CN2CCOCC2)s1 (configuration not stated) : cytotoxicity at 10 µM was -1.84

The reported value for CNC(=O)C(NC(=O)c1nccn2ccnc12)c1ccc(F)c(F)c1 (configuration not stated) in terms of cytotoxicity at 10 µM is -12.6

// `Cc1c(C(=O)NCCC(=O)N2CCOCC2)sc2ccc(F)cc12` : cytotoxicity at 10 µM value = 4.5

Field cytotoxicity at 10 µM (entry `Cn1ccnc1Sc1ncc(C(=O)N2CCCCC2)cc1Cl` ) reads -61

Entry Cn1nnc2c1CCN(Cc1ccoc1)C2COCc1ccccc1 (configuration not stated) ; cytotoxicity at 10 µM = -138

For record `Cc1nonc1CN(C)c1nc(-c2cccnc2)nc2c1CCNC2` the listed cytotoxicity at 10 µM is 4.05

For this molecule ( `Cc1nc(CCNC(=O)CC2CCN(C(C)C)CC2)sc1Cl` ), measured cytotoxicity at 10 µM is -194

Just so you know, measured cytotoxicity at 10 µM for CC(C)n1cnnc1CN1CCC2(CCCN(C3CCCCC3)C2=O)C1 (configuration not stated) came out at -123

Looking up `COCCc1ncc(CN2C[C@H](C3CC3)[C@@H](N)C2)cn1` , I see its cytotoxicity at 10 µM listed as -42

molecule `Cc1ccc(N2CCO[C@H]3CN(Cc4ccncc4)C[C@H]32)nn1` , cytotoxicity at 10 µM observed: 1.23

Noted for `CC(C)Cc1cc(NC(=O)c2ccc(=O)[nH]n2)n(C)n1` : its cytotoxicity at 10 µM reads -10.1

The recorded cytotoxicity at 10 µM for `CCCn1ccnc1-c1cccc(NC(=O)[C@H]2CCC(=O)N2)c1` is -4.97

Reported cytotoxicity at 10 µM for `COc1cc(NC(=O)c2cccc(N(C)C)c2)cc(OC)c1` was 0.03

Item: `CSc1ccc(NC(=O)COCc2ccccc2)nc1` | cytotoxicity at 10 µM: 7.01

For CCc1ccc(CN2CCC(CNS(=O)(=O)C3CC3)C2)nc1 (configuration not stated) the molecule record lists cytotoxicity at 10 µM as -4.69
